Target: Tyrosine-protein kinase JAK1 (Homo sapiens)
Sequence (P23458 whole entry, the tested form may be a part): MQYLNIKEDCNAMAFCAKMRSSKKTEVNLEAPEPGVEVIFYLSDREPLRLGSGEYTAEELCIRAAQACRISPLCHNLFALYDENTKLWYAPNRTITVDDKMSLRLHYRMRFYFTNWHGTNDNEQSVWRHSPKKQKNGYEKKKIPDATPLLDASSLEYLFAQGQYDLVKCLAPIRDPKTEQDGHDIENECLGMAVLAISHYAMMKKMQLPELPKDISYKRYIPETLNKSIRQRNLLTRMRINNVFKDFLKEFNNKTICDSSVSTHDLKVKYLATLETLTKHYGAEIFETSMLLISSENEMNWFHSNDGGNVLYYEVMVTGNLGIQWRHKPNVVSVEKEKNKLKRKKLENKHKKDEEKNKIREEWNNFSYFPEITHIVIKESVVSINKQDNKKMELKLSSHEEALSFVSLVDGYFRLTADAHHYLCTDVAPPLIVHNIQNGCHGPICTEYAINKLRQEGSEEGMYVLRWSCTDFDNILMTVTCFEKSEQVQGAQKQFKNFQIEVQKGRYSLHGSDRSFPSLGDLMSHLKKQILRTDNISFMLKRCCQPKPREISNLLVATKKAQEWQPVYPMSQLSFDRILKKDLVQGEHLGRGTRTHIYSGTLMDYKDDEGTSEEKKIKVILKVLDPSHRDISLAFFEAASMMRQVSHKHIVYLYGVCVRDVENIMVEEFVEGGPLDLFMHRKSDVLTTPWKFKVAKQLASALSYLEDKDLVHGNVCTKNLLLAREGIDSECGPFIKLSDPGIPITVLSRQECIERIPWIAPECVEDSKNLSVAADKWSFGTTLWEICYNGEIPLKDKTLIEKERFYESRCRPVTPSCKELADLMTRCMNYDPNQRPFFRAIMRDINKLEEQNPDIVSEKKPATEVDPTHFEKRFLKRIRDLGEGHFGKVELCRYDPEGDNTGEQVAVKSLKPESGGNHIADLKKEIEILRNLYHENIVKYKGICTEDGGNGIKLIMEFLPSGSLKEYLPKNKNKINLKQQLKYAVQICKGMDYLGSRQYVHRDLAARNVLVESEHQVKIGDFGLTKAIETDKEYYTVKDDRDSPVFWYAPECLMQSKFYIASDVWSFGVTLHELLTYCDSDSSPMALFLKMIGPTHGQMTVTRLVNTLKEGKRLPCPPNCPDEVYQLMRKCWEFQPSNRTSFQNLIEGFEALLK
Assay: In vitro JAK Kinase Assay: The catalytic domains of human JAK1 (a.a. 837-1142), Jak2 (a.a. 828-1132) and Jak3 (a.a. 781-1124) with an N-terminal His tag were expressed using baculovirus in insect cells and purified. The catalytic activity of JAK1, JAK2 or JAK3 was assayed by measuring the phosphorylation of a biotinylated peptide. The phosphorylated peptide was detected by homogenous time resolved fluorescence (HTRF). […] Reactions were carried out at room temperature for 1 hr and then stopped with 20 μL 45 mM EDTA, 300 nM SA-APC, 6 nM Eu-Py20 in assay buffer (Perkin Elmer, Boston, Mass.). Binding to the Europium labeled antibody took place for 40 minutes and HTRF signal was measured on a Fusion plate reader (Perkin Elmer, Boston, Mass.)
pIC50: −log10 of the molar value.
assayEndpoint: pIC50

Requested read-out: pIC50. Entry: N#CCC1(n2cc(-c3ncnc4[nH]ccc34)cn2)CN(C2CCN(C(=O)OCC3CCCCC3)CC2)C1
> 8.30

Data provenance is ChEMBL document CHEMBL5727777.
